Sourced from PubChem BioAssay AID1159580

- Assay Info: chemical genetic growth profiling, strain panel (AID 1159580);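 also: tested at 20 µM; growth read once vehicle control cultures reached saturation at 30 °C; 1 = growth at the plate median or of vehicle wells; lower values mean less growth of the strain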
- Measurement Context: S. cerevisiae deletion strains, growth OD, locus YDR335W, strain msn5, stronger effect = lower value
The whole screen tested about 5,500 compounds, of which about 2,000 (36%) were called active. Inconclusive results (about 18%) are left out. The list shows a part of the results.
Assignment: determine reported normalized growth for the given compounds.

Please review the entries below; each comes with its answer.
INSERT INTO measurements (test_smiles, readout_label, result_value) VALUES
  ('CCCc1cc(C(N)=S)ccn1', 'normalized growth', '0.961 (inactive)'),
  ('CN1CCC(OC(c2ccccc2)c2ccccc2)CC1', 'normalized growth', '0.996 (inactive)');

Proceed to the following item.
I have this compound here, CN(C)CCN(Cc1cccs1)c1ccccn1 , and I need its recorded normalized growth.
1.01 (inactive)

###

- Assay Info: chemical genetic growth profiling, strain panel (AID 1159580);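 also: tested at 20 µM; growth read once vehicle control cultures reached saturation at 30 °C; 1 = growth at the plate median or of vehicle wells; lower values mean less growth of the strain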
- Measurement Context: S. cerevisiae deletion strains, growth OD, locus YEL061C, strain CIN8, stronger effect = lower value
Hit rate of the full screen: of about 5,500 compounds, about 2,000 (36%) were called active. Inconclusive results (about 18%) are left out. This is one part of the list.
Readout Label: normalized growth
Numbers only.

Below are worked cases with known answers.
INSERT INTO assay_data (molecule, readout_label, result_value) VALUES
  ('N#CCCN(CC1CCCO1)C(=S)Nc1cc(C(F)(F)F)cc(C(F)(F)F)c1 (stereo unspecified)', 'normalized growth', 0.982),
  ('CCCCC[C@H]1C(=O)O[C@H](C)[C@H](NC(=O)c2cccc(NC=O)c2O)C(=O)O[C@@H](C)[C@@H]1OC(=O)CC(C)C', 'normalized growth', 0.936),
  ('CCCCCCCCCCC[C@@H](C[C@H]1OC(=O)[C@H]1CCCCCC)OC(=O)[C@@H](CC(C)C)NC=O', 'normalized growth', 1.01);

# map each molecule to its normalized growth
1. O=S(=O)(O)CCS
2. Oc1cc(O)c2c(c1)O[C@H](c1ccc(O)c(O)c1)[C@@H](O)C2
3. Oc1ccc2c(c1)O[C@H](c1ccc(O)c(O)c1)[C@@H](O)C2
4. C=CCc1ccc(O)c(OC)c1
5. c1ccc2c(c1)sc1ccccc12
6. CCN(CC)C(=O)N1CCN(C)CC1

1. 1.01
2. 0.988
3. 1.03
4. 0.923
5. 0.991
6. 1.01

###

Consider the following compounds; for each one, report its normalized growth.
- Assay Info: chemical genetic growth profiling, strain panel (AID 1159580);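 also: tested at 20 µM; growth read once vehicle control cultures reached saturation at 30 °C; 1 = growth at the plate median or of vehicle wells; lower values mean less growth of the strain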
- Measurement Context: S. cerevisiae deletion strains, growth OD, locus YLR320W, strain mms22, stronger effect = lower value
Out of some 5,500 compounds screened, about 2,000 (36%) were called active. Not shown: some 18% with an inconclusive outcome. The list shows a part of the results.
One number for each entry.

Worked cases, normalized growth given:
INSERT INTO measurements (compound, result_value) VALUES
  ('CN(C)CCN(Cc1ccccc1)c1ccccn1', 1.01),
  ('COc1ccc(CN(CCN(C)C)c2ccccn2)cc1', 1.02),
  ('NS(=O)(=O)c1cc2c(cc1Cl)NC=NS2(=O)=O', 0.988),
  ('NCCCS(=O)(=O)O', 1.01),
  ('CC(C)NCC(O)COc1cccc2[nH]ccc12 (centres undefined)', 0.977);

// batch mode: one normalized growth value per listed entry
1. Oc1cc(O)c2c(c1)O[C@H](c1ccc(O)c(O)c1)[C@H](O)C2
2. COc1ccc(C(=O)CC(=O)O)c2c1C=CC(C)(C)O2

1: 1.05; 2: 0.987

# return normalized growth for each item in the list
1. COc1cc([C@@H]2c3cc4c(cc3C(OC3O[C@@H]5COC(C)O[C@H]5[C@H](O)[C@H]3O)C3COC(=O)[C@@H]32)OCO4)cc(OC)c1O (some centres undefined)
2. COc1ccc2c(c1)OC/C(=C/c1ccc(OC)c(OC)c1)C2=O

1
0.71

Hi team, please reply with normalized growth for each item in this list.
1. C/C=C(\C)C(=O)O[C@H]1C[C@@H](OC(C)=O)[C@@]2(C(=O)OC)CO[C@@H]3C2[C@]12CO[C@](O)(C(=O)OC)[C@H]2[C@](C)(C12O[C@@]1(C)[C@H]1C[C@@H]2OC2OC=C[C@@]21O)[C@@H]3O (some centres undefined)
2. C#CCN(C)Cc1ccccc1
3. NCCS(=O)(=O)O
4. O=S(=O)(O)CCS
5. CN(C)CCN(Cc1cccs1)c1ccccn1

1. 0.992
2. 0.99
3. 0.972
4. 0.979
5. 1.04
